# credit: patent US20250313631A1

# Target or test system: T1, recombinant cynomolgus macaque VISTA (His-tagged) (cynomolgus macaque, UniProt A0A7N9IB00 33-194)
# T1 construct: also called cyno VISTA; cynomolgus monkey VISTA
# Measurement description: ELISA, plate coated with cyno VISTA
Property label: pEC50
To interpret pEC50, take it as minus log10 of a concentration measured in moles per litre.

# Binder, Property label, Number
measured = [
    ("anti-VISTA clone V4-C31 IgG1 (antibody, V domains shown) VH: QVQLQESGPGLVKPSDTLSLTCTVSGYSITSDYTWNWIRQTPGKGLEWIGHITYSGSVSYNPSLRSRVTISRDTSKNQFSLKLSSVTAADTATYSCARALYYPWYFDVWGTGTTVTVSS VL: EIVLTQSPATLSLSPGERATLSCRASSSVGYIHWYQQKPGQAPRPLIYATYYRTTGIPARFSGSGSGTDNTLTISSLEPEDSAVYYCQQWSSYPPITFGGGTKLEVKR", "pEC50", 10.49),
]

Then there is this binder:
Req: Please give the measured pEC50 for this binder: anti-VISTA clone V4-C28 IgG1 (antibody, V domains shown) VH: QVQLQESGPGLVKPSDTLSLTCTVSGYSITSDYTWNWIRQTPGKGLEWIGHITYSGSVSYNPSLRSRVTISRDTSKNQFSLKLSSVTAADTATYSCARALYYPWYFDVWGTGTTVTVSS VL: EIVLTQSPATLSLSPGERATLSCRASSSVGYIHWYQQKPGQAPRPLIYATSYRATGIPARFSGSGSGTDNTLTISSLEPEDSAVYYCQQWSSYPPITFGGGTKLEVKR
Resp: 10.44
